Experiment summary: Displacement of [125I]TZDM from beta amyloid protein 42
Recorded metric: Ki (nM)

> print(dat)
                                 chem.smiles  recorded.metric  experimental.value
 1  CNc1ccc(/C=C/c2ccc(-c3nc4cc(OCCF)ccc4o3)cc2)cc1               Ki                0.74
 2  Nc1ccc(/C=C/c2ccc(-c3nc4cc(OCCF)ccc4s3)cc2)cc1               Ki                0.41
 3  CN(C)c1ccc(/C=C/c2ccc(-c3nc4ccc(OCCF)cc4o3)cc2)cc1               Ki                0.45
 4       [11CH3]Nc1ccc(-c2nc3ccc(O)cc3s2)cc1               Ki                0.77
 5  CN(C)c1ccc(/C=C/c2ccc(-c3nc4cc(OCCCF)ccc4o3)cc2)cc1               Ki                0.47
 6  CN(C)c1ccc(/C=C/c2ccc(-c3nc4ccc(OCCF)cc4s3)cc2)cc1               Ki                0.57
 7  CNc1ccc(/C=C/c2ccc(-c3nc4ccc(OCCCF)cc4o3)cc2)cc1               Ki                0.68
 8  Nc1ccc(/C=C/c2ccc(-c3nc4cc(OCCCF)ccc4s3)cc2)cc1               Ki                0.42
 9  Nc1ccc(/C=C/c2ccc(-c3nc4ccc(OCCF)cc4o3)cc2)cc1               Ki                0.47
10  CNc1ccc(/C=C/c2ccc(-c3nc4cc(OCCF)ccc4s3)cc2)cc1               Ki                 0.1
11  CNc1ccc(/C=C/c2ccc(-c3nc4ccc(OCCF)cc4o3)cc2)cc1               Ki                 0.5
12  Nc1ccc(/C=C/c2ccc(-c3nc4cc(OCCF)ccc4o3)cc2)cc1               Ki                0.32
13  CN(C)c1ccc(/C=C/c2ccc(-c3nc4ccc(OCCCF)cc4s3)cc2)cc1               Ki                0.12
14  Nc1ccc(/C=C/c2ccc(-c3nc4ccc(OCCCF)cc4o3)cc2)cc1               Ki                0.59
15  Nc1ccc(/C=C/c2ccc(-c3nc4ccc(OCCF)cc4s3)cc2)cc1               Ki                0.59
16  CN(C)c1ccc(/C=C/c2ccc(-c3nc4cc(OCCF)ccc4o3)cc2)cc1               Ki                0.44
17  CNc1ccc(/C=C/c2ccc(-c3nc4cc(OCCCF)ccc4o3)cc2)cc1               Ki                0.45
18  CNc1ccc(/C=C/c2ccc(-c3nc4ccc(OCCF)cc4s3)cc2)cc1               Ki                0.52
19  CNc1ccc(/C=C/c2ccc(-c3nc4cc(OCCCF)ccc4s3)cc2)cc1               Ki                0.38
20  Nc1ccc(/C=C/c2ccc(-c3nc4cc(OCCCF)ccc4o3)cc2)cc1               Ki                0.45
21  CNc1ccc(/C=C/c2ccc(-c3nc4ccc(OCCCF)cc4s3)cc2)cc1               Ki                0.48
22  CN(C)c1ccc(/C=C/c2ccc(-c3nc4ccc(OCCCF)cc4o3)cc2)cc1               Ki                0.46
23  CN(C)c1ccc(/C=C/c2ccc(-c3nc4cc(OCCF)ccc4s3)cc2)cc1               Ki                0.35
24  CN(C)c1ccc(/C=C/c2ccc(-c3nc4cc(OCCCF)ccc4s3)cc2)cc1               Ki                0.49
25  Nc1ccc(/C=C/c2ccc(-c3nc4ccc(OCCCF)cc4s3)cc2)cc1               Ki                0.55
